Test: Solubility of risperidone in receiving medium for in vitro dissolution
Conditions: 50 mm tris buffer, pH 7.4, aqueous buffer
assay_metric: solubility

[ask] Which solubility is reported for this compound? Cc1nc2n(c(=O)c1CCN1CCC(c3noc4cc(F)ccc34)CC1)CCCC2 [Risperidone, risperidone]
[reply] ≥ 500 µg/mL
